# Target Of Assay: E. coli DNA gyrase (GyrA-B) (Escherichia coli, UniProt P0AES4)
# Sequence (P0AES4 whole entry): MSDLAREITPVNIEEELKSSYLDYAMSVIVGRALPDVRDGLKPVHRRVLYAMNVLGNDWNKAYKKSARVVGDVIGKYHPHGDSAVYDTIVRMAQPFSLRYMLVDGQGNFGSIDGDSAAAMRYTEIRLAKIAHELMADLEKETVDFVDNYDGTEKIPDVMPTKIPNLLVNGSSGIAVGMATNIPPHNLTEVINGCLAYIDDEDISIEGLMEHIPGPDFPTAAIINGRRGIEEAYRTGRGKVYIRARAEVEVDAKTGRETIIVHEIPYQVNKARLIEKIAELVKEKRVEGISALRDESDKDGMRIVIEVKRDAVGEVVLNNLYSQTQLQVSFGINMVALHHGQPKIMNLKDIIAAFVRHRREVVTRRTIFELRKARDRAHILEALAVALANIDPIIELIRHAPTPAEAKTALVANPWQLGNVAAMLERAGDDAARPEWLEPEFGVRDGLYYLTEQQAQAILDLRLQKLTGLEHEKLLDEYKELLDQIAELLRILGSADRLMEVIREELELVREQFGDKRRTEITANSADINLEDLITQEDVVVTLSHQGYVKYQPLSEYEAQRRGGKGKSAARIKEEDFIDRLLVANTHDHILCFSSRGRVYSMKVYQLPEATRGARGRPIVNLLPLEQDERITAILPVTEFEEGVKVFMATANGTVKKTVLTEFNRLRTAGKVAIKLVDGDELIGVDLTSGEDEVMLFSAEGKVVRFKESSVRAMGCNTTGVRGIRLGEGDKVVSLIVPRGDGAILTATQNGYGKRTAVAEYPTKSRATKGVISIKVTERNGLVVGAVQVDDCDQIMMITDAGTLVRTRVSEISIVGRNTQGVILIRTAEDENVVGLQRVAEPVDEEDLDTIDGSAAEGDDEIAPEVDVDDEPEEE
# Assay Name: Supercoiling assay of E. coli gyrase
# Format: biochemical
Reported pIC50 by item:
API: returns pIC50 as number; meaning -log10 of concentration in mol/L.

Cc1c(N2CCNCC2)c(F)cc2ccc(=O)n(C3CC3)c12	4.92

Hello, I am looking for reported pIC50 with E. coli DNA gyrase (GyrA-B) (Escherichia coli, UniProt P0AES4) for Cc1c(N2CC[C@@H]([C@H](C)N)C2)c(F)cc2ccc(=O)n(C3CC3)c12.Cl [Example 9.1, hydrochloride salt] . Could you help? 5.89

====

Reported MIC by item:
# System: P. aeruginosa NB52023-CDK0006 (gyrA T83I, parC S87L)
# Assay Name: microbe, parasite or virus in culture
# Format: cell-based
# Condition Notes: Pseudomonas aeruginosa, 20 h, read-out: Antibacterial activity (MIC) NB52023-CDK0006
Value expressed in µg/mL; do not type the unit.

Solved entries (count: 2):
Cc1c(N2CC[C@H](CN)C2)c(F)cc2c(C#N)cc(=O)n(C3CC3)c12 [Example 29]	4
Cc1c(N2CCC(CN)C2)c(F)cc2c(CCN)cc(=O)n(C3CC3)c12.O=C(O)C(F)(F)F (stereo not shown) [Example 91]	16

Now consider a different molecule.
Hello, I am looking for reported MIC with P. aeruginosa NB52023-CDK0006 (gyrA T83I, parC S87L) for Cc1c(N2CC[C@H](O)C2)c(F)cc2c(CN)cc(=O)n(C3CC3)c12 [Example 81.32] . Could you help? 1

====

Reported MIC by item:
# System: P. aeruginosa NB52023 (efflux deficient K1542, ΔmexX ΔmexB)
# Assay Name: microbe, parasite or virus in culture
# Assay type: cell-based
# Condition Notes: Pseudomonas aeruginosa, 20 h, read-out: Antibacterial activity (MIC) NB52023
Value expressed in µg/mL; do not type the unit.

Solved entries (count: 5):
COc1cc(=O)n(C2CC2)c2c(C)c(N3CC[C@@H]([C@H](C)N)C3)c(F)cc12 [Example 67]	8
Cl.N#Cc1c(N2CC[C@H](N)C2)c(F)cc2ccc(=O)n(C3CC3)c12 [Example 113]	2
Cc1c(N2CCNCC2)c(F)cc2ccc(=O)n(C3CC3)c12 [Example 9.3]	16
Cc1c(N2CC[C@@H]([C@H](C)N)C2)c(F)cc2c(CN)cc(=O)n(C3CC3)c12 [Example 45]	0.5
Cc1c(N2CCC(CN)C2)c(F)c(CN)c2ccc(=O)n(C3CC3)c12.O=C(O)C(F)(F)F (stereo not shown) [Example 100]	8

Give the measured MIC of Cc1c(N2CC[C@H](O)C2)c(F)c(F)c2c(CN3CCN(C)CC3)cc(=O)n(C3CC3)c12 [Example 90, acetic acid] . 32

Give the measured MIC of Cc1c(N2CC[C@@H](CN)C2)c(F)cc2c(C#N)cc(=O)n(C3CC3)c12 [Example 31] . 2

Give the measured MIC of COc1c(N2CCC(CN)C2)c(F)cc2ccc(=O)n(C3CC3)c12.O=C(O)C(F)(F)F (stereo not shown) [Example 110] . 16

Give the measured MIC of Cc1c(N2CC[C@@H]([C@H](C)N)C2)c(F)cc2c(-c3cc(F)c(O)c(F)c3)cc(=O)n(C3CC3)c12 [Example 20] . 32

Give the measured MIC of CCOC(=O)c1cc(=O)n(C2CC2)c2c(C)c(N3CC[C@@H]([C@H](C)N)C3)c(F)cc12 [Example 35] . 8

====

# Test system: P. aeruginosa NB52023-CDK0006 (gyrA T83I, parC S87L)
# Assay Name: microbe, parasite or virus in culture
# Type: cell-based
# Condition Notes: Pseudomonas aeruginosa, 20 h, read-out: Antibacterial activity (MIC) NB52023-CDK0006
Structures can show the parent of a compound that is named as a salt.
Readout Name: MIC (µg/mL)
Value expressed in µg/mL; do not type the unit.

Cc1c(N2CC[C@H](N)C2)c(F)cc2c(C#N)cc(=O)n(C3CC3)c12	4
Cc1c(N2CC3CC3(N)C2)c(F)cc2c(CN)cc(=O)n(C3CC3)c12 (stereo not shown)	1
Cc1c(N2CC[C@@H]([C@H](C)N)C2)c(F)cc2c(OCCC/C(N)=N\O)cc(=O)n(C3CC3)c12	32
Cc1c(N2CC[C@@H]([C@H](C)N)C2)c(F)cc2c(OCCNC(=N)N)cc(=O)n(C3CC3)c12	4
N#Cc1c(N2CC[C@H](N)C2)c(F)cc2c(CN)cc(=O)n(C3CC3)c12	4

Give the measured MIC of Cc1c(F)c(N2CCC(CN)C2)c(C)c2c1ccc(=O)n2C1CC1.O=C(O)C(F)(F)F (stereo not shown) . 16

Give the measured MIC of Cc1c(N2CCNCC2)c(F)cc2c(CN)cc(=O)n(C3CC3)c12 . 2

Give the measured MIC of Cc1c(N2CCC(F)(CN)C2)c(F)c(F)c2c(CN)cc(=O)n(C3CC3)c12 (stereo not shown) [Example 83, TFA salt] . 0.5

====

# Test system: P. aeruginosa NB52019 (wild-type PAO1)
# Assay Name: MIC, broth microdilution (CLSI)
# Format: cell-based
# Condition Notes: Pseudomonas aeruginosa; P. aeruginosa wild-type PAO1; 35° C., 20 hours; read-out: Antibacterial activity (MIC) NB52019
Reported MIC by item:
Value expressed in mg/L; do not type the unit.

Give the measured MIC of Cc1c(N2CC[C@@H]([C@H](C)N)C2)c(F)c(F)c2ccc(=O)n(C3CC3)c12.O=C(O)C(F)(F)F . 2

Give the measured MIC of CNCc1cc(=O)n(C2CC2)c2c(C)c(N3CCC(CN)C3)c(F)cc12.O=C(O)C(F)(F)F (centres unmarked) . 16

Give the measured MIC of Cc1c(N2CCC(CN)C2)c(F)cc2c(CCN)cc(=O)n(C3CC3)c12.O=C(O)C(F)(F)F (centres unmarked) . 16

Give the measured MIC of Cc1c(N2CC[C@@H]([C@H](C)N)C2)c(F)cc2ccc(=O)n(C3CC3)c12.Cl . 16

Give the measured MIC of Cc1c(N2CCC(CN)C2)c(F)cc2c(CNCCN)cc(=O)n(C3CC3)c12.O=C(O)C(F)(F)F (centres unmarked) . 16

====

Reported IC50 by item:
# Target Of Assay: E. coli DNA gyrase (GyrA-B) (Escherichia coli, UniProt P0AES4)
# Assay Name: Supercoiling assay of E. coli gyrase
# Format: biochemical
# Condition Notes: supercoiling activity of E. coli gyrase (GyrA-B); read-out: GyrA-B IC50 (Enzyme)
Where a name gives a salt, the structure may show the parent alone.
Value expressed in nM; do not type the unit.

Solved entries (count: 8):
Cc1c(N2CCC(C3(N)CC3)C2)c(F)cc2ccc(=O)n(C3CC3)c12 (stereo not shown) [Example 9.2]	1190
Cc1c(N2CC[C@@H]([C@H](C)N)C2)ccc2c(OCCN(C)C)cc(=O)n(C3CC3)c12 [Example 74, TFA salt]	310
Cc1c(N2CC[C@@H]([C@H](C)N)C2)c(F)cc2c(-c3n[nH]c(=O)o3)cc(=O)n(C3CC3)c12 [Example 42]	830
COc1c(N2CC[C@@H]([C@H](C)N)C2)c(F)cc2cc(C(=O)O)c(=O)n(C3CC3)c12 [Example 12, hydrochloride]	4640
Cc1c(N2CC[C@@H]([C@H](C)N)C2)ccc2ccc(=O)n(C3CC3)c12 [Example 76, trifluoroacetic acid salt]	6800
Cc1c(N2CC[C@@H]([C@H](C)N)C2)ccc2cc(O)c(=O)n(C3CC3)c12 [Example 79, TFA salt]	2440
Cc1c(N2CC[C@H](N)C2)c(F)cc2c(C#N)cc(=O)n(C3CC3)c12 [Example 30]	980
Cc1c(N2CC[C@@H]([C@H](C)N)C2)c(F)cc2c(C(N)=O)cc(=O)n(C3CC3)c12 [Example 34]	440

Give the measured IC50 of Cc1c(N2CC[C@@H]([C@H](C)N)C2)c(F)cc2c(-c3nnn[nH]3)cc(=O)n(C3CC3)c12 [Example 39] . 9800

Give the measured IC50 of Cc1c(N2CC[C@@H]([C@H](C)N)C2)ccc2c(OCC3CCOCC3)cc(=O)n(C3CC3)c12 [Example 73, TFA salt] . 3010

Give the measured IC50 of Cc1c(N2CC[C@@H]([C@H](C)N)C2)c(F)cc2c(C(=O)O)cc(=O)n(C3CC3)c12 [Example 33] . 16300

Give the measured IC50 of Cc1c(N2CC[C@@H]([C@H](C)N)C2)c(F)cc2c(OCc3n[nH]c(=O)o3)cc(=O)n(C3CC3)c12 [Example 64] . 3200

Give the measured IC50 of Cc1c(-c2ccc(N)nc2)c(F)cc2cc(O)c(=O)n(C3CC3)c12 [Example 11.2] . 8070

These measurements were taken from patent US10160726B2.
